Biological target: Peroxisome proliferator-activated receptor gamma (Homo sapiens, UniProt P37231)
Sequence (P37231 whole entry): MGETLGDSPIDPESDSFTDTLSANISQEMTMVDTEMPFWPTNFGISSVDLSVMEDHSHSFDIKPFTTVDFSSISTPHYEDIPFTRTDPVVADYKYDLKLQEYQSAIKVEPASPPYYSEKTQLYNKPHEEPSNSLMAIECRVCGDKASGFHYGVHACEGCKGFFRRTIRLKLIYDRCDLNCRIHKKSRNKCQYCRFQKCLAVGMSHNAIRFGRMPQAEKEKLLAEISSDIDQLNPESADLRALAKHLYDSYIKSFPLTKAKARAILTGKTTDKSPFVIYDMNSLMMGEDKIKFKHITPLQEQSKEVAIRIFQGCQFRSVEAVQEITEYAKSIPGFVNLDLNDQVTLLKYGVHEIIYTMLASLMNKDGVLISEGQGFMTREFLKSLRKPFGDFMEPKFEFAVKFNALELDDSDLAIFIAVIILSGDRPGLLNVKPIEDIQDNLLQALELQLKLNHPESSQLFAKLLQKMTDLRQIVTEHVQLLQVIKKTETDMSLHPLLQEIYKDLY
measuredParameter: pEC50
Please treat pEC50 as minus the base-10 logarithm of the molar concentration.

Cc1oc(-c2ccccc2)nc1CCOc1ccc(C[C@@H](C(=O)O)N2CCOCC2)cc1 :: 7.62
Cc1oc(-c2ccccc2)nc1CCOc1ccc(C[C@H](NS(C)(=O)=O)C(=O)O)cc1 :: 5.59
Cc1oc(-c2ccccc2)nc1CCOc1ccc(C[C@H](Nc2ncccn2)C(=O)O)cc1 :: 6.23

Report pEC50 for CC(=O)N[C@@H](Cc1ccc(OCCc2nc(-c3ccccc3)oc2C)cc1)C(=O)O tested on Peroxisome proliferator-activated receptor gamma (Homo sapiens, UniProt P37231).
5.46

Report pEC50 for CCCN[C@@H](Cc1ccc(OCCc2nc(-c3ccccc3)oc2C)cc1)C(=O)O tested on Peroxisome proliferator-activated receptor gamma (Homo sapiens, UniProt P37231).
6.62

Report pEC50 for CN[C@@H](Cc1ccc(OCCc2nc(-c3ccccc3)oc2C)cc1)C(=O)O tested on Peroxisome proliferator-activated receptor gamma (Homo sapiens, UniProt P37231).
5.30

Report pEC50 for Cc1oc(-c2ccccc2)nc1CCOc1ccc(C[C@@H](C(=O)O)n2c(C)ccc2C)cc1 tested on Peroxisome proliferator-activated receptor gamma (Homo sapiens, UniProt P37231).
6.15

Report pEC50 for Cc1oc(-c2ccccc2)nc1CCOc1ccc(C[C@@H](C(=O)O)N(C)C)cc1 tested on Peroxisome proliferator-activated receptor gamma (Homo sapiens, UniProt P37231).
6.39

Report pEC50 for Cc1oc(-c2ccccc2)nc1CCOc1ccc(C[C@@H](C(=O)O)N2CCCC2)cc1 tested on Peroxisome proliferator-activated receptor gamma (Homo sapiens, UniProt P37231).
6.41

Report pEC50 for Cc1oc(-c2ccccc2)nc1CCOc1ccc(C[C@@H](C(=O)O)N2CCCCC2)cc1 tested on Peroxisome proliferator-activated receptor gamma (Homo sapiens, UniProt P37231).
6.86
